target: Cytochrome P450 2D6 (Homo sapiens) (UniProt P10635); assay: Cytochrome P450 family 2 subfamily D member 6 (CYP2D6) small molecule antagonists: luciferase biochemical (cell-free) qHTS assay (AID 1645840); conditions: P450-Glo CYP2D6 enzyme, luciferin luminescence, 1 h; series mostly up to 57.4 µM; note: nearly all actives have a fitted effect of over 55% in size
Sequence (P10635 whole entry, looked up): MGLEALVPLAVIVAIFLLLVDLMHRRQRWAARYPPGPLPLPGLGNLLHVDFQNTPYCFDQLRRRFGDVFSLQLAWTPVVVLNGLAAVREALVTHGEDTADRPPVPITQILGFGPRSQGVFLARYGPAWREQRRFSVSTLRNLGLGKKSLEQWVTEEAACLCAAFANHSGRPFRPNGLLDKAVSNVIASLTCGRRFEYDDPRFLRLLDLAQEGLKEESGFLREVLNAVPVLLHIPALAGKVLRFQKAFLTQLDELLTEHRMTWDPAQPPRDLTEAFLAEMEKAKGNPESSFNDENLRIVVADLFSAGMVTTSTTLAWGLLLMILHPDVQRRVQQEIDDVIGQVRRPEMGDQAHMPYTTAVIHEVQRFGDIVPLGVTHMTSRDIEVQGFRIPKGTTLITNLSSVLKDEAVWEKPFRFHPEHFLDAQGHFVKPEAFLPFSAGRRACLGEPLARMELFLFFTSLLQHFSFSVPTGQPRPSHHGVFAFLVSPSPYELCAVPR
Results filed as inconclusive are left out. Active and inactive are the calls of the source. Calls come from the whole dose curve; as a rule, active = well fitted inhibition curve with a large enough effect in the repeat runs; inconclusive = weak or mixed curves; inactive = flat fitted curve, though single readings scatter.
Outcome codes: t (active), f (inactive)

compound | category
Cc1nc(N)sc1-c1ccnc(Nc2ccc(N3CCOCC3)cc2)n1 | f
OC[C@@H](O)[C@H](O)[C@H](O)[C@@H](O)CO | f
CC(=O)O[C@]1(C(C)=O)CC[C@H]2[C@@H]3C=C(Cl)C4=CC(=O)[C@@H]5C[C@@H]5[C@]4(C)[C@H]3CC[C@@]21C | f
CC(C)n1nc(-c2ccc3oc(N)nc3c2)c2c(N)ncnc21 | f
O=C(O)CCC1CCC(c2cc(F)ccc2F)(S(=O)(=O)c2ccc(Cl)cc2)CC1 (stereo unspecified) | f
CCCCC1C(=O)N(c2ccccc2)N(c2ccccc2)C1=O | f
CCN(CC)C(=O)c1ccc(O)c(OC)c1 | f
CC(C)(C)Cn1c(N)nc2ccc(-c3[nH]c(C(C)(C)C)nc3-c3ccc(F)cc3)nc21 | t
Cc1ccc([C@@H]2O[C@H](CO)[C@@H](O)[C@H](O)[C@@H]2O)cc1Cc1ccc(-c2ccc(F)cc2)s1 | t
CCOc1ccc(Nc2nc(-c3c(C)nc4ccccn34)cs2)cc1 | t
CCc1ccc(OCc2ccccc2C(=O)Nc2ccc3nc(C)cc(N)c3c2)cc1 | t
CCCCCNC(=O)N1CCC(CN(Cc2ccc(Cl)cc2)Cc2ccc([N+](=O)[O-])s2)C1 (stereo unspecified) | t
C[N+](C)(C)CC(=O)O | f
Clc1ccc(-c2nc3sccn3c2C=NOCc2ccc(Cl)c(Cl)c2)cc1 | f
O=c1c(-c2ccc(O)cc2)coc2cc(OC3O[C@H](CO)[C@H](O)[C@H](O)[C@H]3O)cc(O)c12 (stereo partly specified) | t
Cc1ccn(-c2ccc(-c3ncco3)cc2)c(=O)c1-c1ccc2nc(N)ncc2c1 | t
Cn1c(N2CCCCS2(=O)=O)nc(C(=O)NCc2ccc(F)cc2)c(O)c1=O | f
O=C(O)c1cc(-c2ccccc2)nc2ccccc12 | f
Cc1cccc(Nc2nc(-c3ccncc3)cs2)c1 | t
CC(C)(Cc1ccc2ccccc2c1)NC[C@@H](O)COc1cccc(Cl)c1C#N | t
COc1ccc2cc(-c3nc(-c4ccc(S(C)=O)cc4)[nH]c3-c3ccncc3)ccc2c1 (stereo unspecified) | t

* * *

assay: Quantitative High-Throughput drug screen in 47 multiple myeloma cell lines against the NCATS MIPE library collection: PCM6_Riken cell viability assay (AID 1919870); settings: CellTiter-Glo ATP, 48 h; series mostly up to 45.8 µM; note: nearly all actives have a fitted effect of over 30% in size; note: potency is the fitted concentration of half-maximal effect
Inconclusive results are not listed. Calls of active or inactive are those of the source. Calls come from the whole dose curve; as a rule, active = well fitted cell-killing curve with a large enough effect; inconclusive = small, poorly fitted or top-dose-only effect, or effect the other way; inactive = no such curve, though single readings can be large or run the other way.

molecule | Potency
NC(=O)c1ccc2nc(-c3ccc(Oc4ccc(Cl)cc4)cc3)[nH]c2c1 | inactive
O=c1c(O)c(-c2ccc(O)cc2)oc2cc(O)cc(O)c12 | 18.7 µM (active)
C[N+](C)(C)CC(=O)O | inactive
Cc1cc(OCCCc2c(C(=O)O)n(Cc3cccnc3)c3c(-c4c(COc5ccc(N6CCN([S+](C)(=O)[O-])CC6)cc5)nn(C)c4C)cccc23)cc(C)c1Cl | 20.9 µM (active)
COc1cc2ncnc(-n3nc(-c4ccccn4)nc3N)c2cc1OC | 4.69 µM (active)
CC(C)(Cc1ccc2ccccc2c1)NC[C@@H](O)COc1cccc(Cl)c1C#N | inactive
NC1=N[C@@]2(c3cc(NC(=O)c4ccc(F)cn4)ccc3F)COC[C@@H]2CS1 | 11.8 µM (active)
Clc1ccc(C(c2ccc(Cl)cc2)n2cc[n+](CC(OCc3ccc(Cl)cc3Cl)c3ccc(Cl)cc3Cl)c2)cc1 (configuration not stated) | 6.62 µM (active)
CC1CCC(C(=O)N(c2cc(C#CC(C)(C)C)sc2C(=O)O)C2CCC(O)CC2)CC1 (configuration not stated) | 20.9 µM (active)
NC(CO)(CO)CCc1ccc(Sc2cccc(OCc3ccccc3)c2)cc1Cl | 14.8 µM (active)
O=c1c(-c2ccc(O)cc2)coc2cc(OC3O[C@H](CO)[C@H](O)[C@H](O)[C@H]3O)cc(O)c12 (some centres not stated) | 2.64 µM (active)
NS(=O)(=O)c1cccc2c1C(=O)c1cccc(O)c1C2=O | 0.469 µM (active)

* * *

biological target: Glutathione peroxidase 1 (Homo sapiens) (UniProt P07203); test: Primary qHTS Assay for Inhibitors of Recombinant Selenoprotein Glutathione Peroxidase 1 (GPX1) (AID 1845191); conditions: recombinant GPX1, GR-coupled NADPH fluorescence, 15 min; series mostly up to 48.8 µM; note: nearly all actives have a fitted effect of over 65% in size
Sequence (P07203 whole entry, looked up): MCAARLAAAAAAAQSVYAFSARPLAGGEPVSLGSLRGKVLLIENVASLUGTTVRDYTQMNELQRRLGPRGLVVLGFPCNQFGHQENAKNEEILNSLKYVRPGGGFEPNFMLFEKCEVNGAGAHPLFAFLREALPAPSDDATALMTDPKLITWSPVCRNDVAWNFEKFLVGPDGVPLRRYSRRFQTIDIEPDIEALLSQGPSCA
Records with an inconclusive call do not appear. Active and inactive are the calls of the source. Calls come from the whole dose curve; as a rule, active = well fitted inhibition curve with a large enough effect; inconclusive = small, poorly fitted or top-dose-only effect; inactive = flat fitted curve, though single readings scatter.
Labels: active, inactive

compound | measured.on | category
CC(=O)OC1C(C)OC(Oc2c(-c3ccc(O)cc3)oc3cc(O)cc(O)c3c2=O)C(O)C1OC(C)=O (stereo unspecified) | Glutathione peroxidase 1 (Homo sapiens) (UniProt P07203) | inactive
Nc1ncnc2ccccc12 | Glutathione peroxidase 1 (Homo sapiens) (UniProt P07203) | inactive
CCCCCNC(=O)N1CCC(CN(Cc2ccc(Cl)cc2)Cc2ccc([N+](=O)[O-])s2)C1 (stereo unspecified) | Glutathione peroxidase 1 (Homo sapiens) (UniProt P07203) | active
CCOC(CN1C(=O)[C@](CC(=O)Nc2ccc(C)cc2)(NC(=O)Nc2ccc(C)cc2)c2ccccc21)OCC | Glutathione peroxidase 1 (Homo sapiens) (UniProt P07203) | inactive
CC(C)n1nc(-c2ccc3oc(N)nc3c2)c2c(N)ncnc21 | Glutathione peroxidase 1 (Homo sapiens) (UniProt P07203) | inactive
Cc1cccc(Nc2nc(-c3ccncc3)cs2)c1 | Glutathione peroxidase 1 (Homo sapiens) (UniProt P07203) | inactive
CC#CCn1c(N2CCC[C@@H](N)C2)nc2c1c(=O)n(Cc1nc(C)c3ccccc3n1)c(=O)n2C | Glutathione peroxidase 1 (Homo sapiens) (UniProt P07203) | inactive
CCCNC(=O)NS(=O)(=O)c1ccc(Cl)cc1 | Glutathione peroxidase 1 (Homo sapiens) (UniProt P07203) | inactive
CCCCC1C(=O)N(c2ccccc2)N(c2ccccc2)C1=O | Glutathione peroxidase 1 (Homo sapiens) (UniProt P07203) | inactive
CNC(=O)c1ccc2cc(C3(O)CCn4cncc43)ccc2c1 (stereo unspecified) | Glutathione peroxidase 1 (Homo sapiens) (UniProt P07203) | inactive
CCNc1cc(NC2CCC(O)CC2)nc(Nc2ccc3c(ccn3Cc3ccccc3)c2)n1 (stereo unspecified) | Glutathione peroxidase 1 (Homo sapiens) (UniProt P07203) | inactive

* * *

assay: qHTS of pediatric cancer cell lines to identify multiple opportunities for drug repurposing: Confirmatory screen for SJ-GBM2 cells (AID 1347116); details: SJ-GBM2 glioblastoma cells, viability; series mostly up to 45.9 µM;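 note: 48 hour compound exposure; nearly all actives have a fitted effect of over 60% in size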; note: potency is the fitted concentration of half-maximal effect
Inconclusive results are not listed. The source made the active and inactive calls. Calls follow the shape of the dose curve; as a rule, active = well fitted cell-killing curve with a large enough effect; inconclusive = small, poorly fitted or top-dose-only effect, or effect the other way; inactive = no such curve, though single readings can be large or run the other way.
property: Potency

compound | assay.value
O=C1c2ccccc2-[n+]2ccc3c([nH]c4ccccc43)c21 | 2.61 µM (active)
Cc1nnc(C(C)C)n1C1C[C@H]2CC[C@@H](C1)N2CC[C@H](NC(=O)C1CCC(F)(F)CC1)c1ccccc1 (stereo not given in full) | 10.4 µM (active)
C=C1C(=O)[C@@]23C(CC[C@@H]1[C@H]2O)[C@@]12CO[C@]3(O)[C@@H](O)[C@@H]1C(C)(C)CC[C@@H]2O (stereo not given in full) | 20.8 µM (active)
O=c1[nH]cnc2c1ncn2[C@H]1CC[C@@H](CO)O1 | inactive
O=C(O)c1ccc(-c2c[nH]c3ncc(-c4ccccc4)cc23)cc1C1CCCC1 | inactive

* * *

tested on: NIH3T3; experiment: qHTS assay to identify novel small-molecules to repurpose for Merkel cell carcinoma treatment (AID 1296009); conditions: MCC and control cell lines, CellTiter-Glo viability, 72 h; at 44.8 µM (top of the series) unless noted; note: nearly all actives have a fitted effect of over 60% in size
Inconclusive results are not listed. The source made the active and inactive calls. The call rests on the fitted dose curve; in most records, active means well fitted inhibition curve with a large enough effect; inconclusive means small, poorly fitted or top-dose-only effect; inactive means flat fitted curve, though single readings scatter.

chemical.structure | outcome
Cn1c(N2CCCCS2(=O)=O)nc(C(=O)NCc2ccc(F)cc2)c(O)c1=O | inactive
COc1ccc(-c2coc3cc(O)cc(O)c3c2=O)cc1 | inactive
CCC(CC)[C@H](NC(C)=O)[C@@H]1[C@H](O)[C@@H](C(=O)O)C[C@@H]1N=C(N)N | inactive

* * *

test: qHTS of pediatric cancer cell lines to identify multiple opportunities for drug repurposing: Primary screen for NB-EBc1 cells (AID 1347095); settings: NB-EBc1 neuroblastoma viability, CellTiter-Glo luminescence, 48 h; series mostly up to 46 µM
Records with an inconclusive call do not appear. Calls of active or inactive are those of the source. The call rests on the fitted dose curve; in most records, active means well fitted cell-killing curve with a large enough effect; inconclusive means small, poorly fitted or top-dose-only effect; inactive means no such curve, though single readings can be large or run the other way.
Labels: Yes = active, No = inactive

chemical.structure | category
CC(C)(C)c1cc(C(=O)O)c(NC(=O)Nc2ccc3[nH]ncc3c2)s1 | No
C[C@H]1[C@H](NC(=O)C(=NOC(C)(C)C(=O)O)c2csc(N)n2)C(=O)N1S(=O)(=O)O | No
CCC(=O)O[C@]1(C(=O)CO)CC[C@H]2[C@@H]3CCC4=CC(=O)CC[C@]4(C)[C@@H]3CC[C@@]21C | No
O=C(CCc1ccc(O)cc1)c1c(O)cc(O)cc1O[C@@H]1O[C@H](CO)[C@H](O)[C@H](O)[C@H]1O | No
Clc1cc(Cl)cc(CNc2ncncc2-c2ccc3c(c2)OCO3)c1 | Yes
CC[C@@]1(O)C[C@H](O[C@H]2C[C@H](N(C)C)[C@H](O[C@H]3C[C@H](O)[C@H](O[C@H]4CCC(=O)[C@H](C)O4)[C@H](C)O3)[C@H](C)O2)c2c(cc3c(c2O)C(=O)c2c(O)cccc2C3=O)[C@@H]1C(=O)OC | Yes
COc1ccc(Cc2ccc(NC(N)=O)cc2)cc1-c1cccc(Cl)c1 | No
COC(=O)[C@@H]1[C@H]2C[C@H]3c4[nH]c5ccccc5c4CCN3C[C@@H]2CC[C@@H]1O | No
COc1ccc2cccc(CCNC(C)=O)c2c1 | No
CC(=Cc1ccccc1)C=C1SC(=S)N(CC(=O)O)C1=O | No
COCCCCC(=NOCCN)c1ccc(C(F)(F)F)cc1 | No
O=C1c2ccccc2-[n+]2ccc3c([nH]c4ccccc43)c21 | Yes
CC(C)C(=O)Nc1ncc(-c2cc(C(F)F)nn2-c2c(Cl)cccc2Cl)s1 | Yes
CN[C@@H](C)C(=O)N[C@H]1CN(C(=O)CC(C)C)CC[C@H]2CC[C@@H](C(=O)NC(c3ccccc3)c3ccccc3)N2C1=O | Yes
CC=CC[C@@H](C)C(=O)[C@H]1C(=O)N[C@@H](C(C)C)C(=O)N(C)CC(=O)N(C)[C@@H](CC(C)C)C(=O)N[C@@H](C(C)C)C(=O)N(C)[C@@H](CC(C)C)C(=O)N[C@@H](C)C(=O)N[C@H](C)C(=O)N(C)[C@@H](CC(C)C)C(=O)N(C)[C@@H](CC(C)C)C(=O)N(C)[C@@H](C(C)C)C(=O)N1C | No
Cc1ccc([C@@H]2O[C@H](CO)[C@@H](O)[C@H](O)[C@@H]2O)cc1Cc1ccc(-c2ccc(F)cc2)s1 | No
